# Target: C-terminal domain of human centrin 1 (M93-Y172) (human, UniProt Q12798 93-172)
# Sequence (Q12798 93-172): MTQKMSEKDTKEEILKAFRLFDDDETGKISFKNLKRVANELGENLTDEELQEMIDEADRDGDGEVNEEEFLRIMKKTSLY
# Method: ITC
Endpoint Name: Ka (M⁻¹)

Guide cases for Ka, answers given:
Binder | Ka, M⁻¹
Ac-TVWAQLARHLVSHQHHLDAR-NH2 [HsSfi1R17inv, repeat 17 peptide of human Sfi1 in reversed sequence orientation] | 1.49e+08
Ac-SQHNRQLLRGALRRWK-NH2 [HsSfiR18, repeat 18 peptide of human Sfi1 (677-692)] | 8.15e+07

[a] Ac-NWKLLAKGLLIRERLKR-NH2 [P17-XPC, 17-residue peptide of human XPC]
[b] Ac-RADLHHQHSVLHRALQAWVT-NH2 [HsSfiR17, repeat 17 peptide of human Sfi1 (641-660)]
When the recorded Ka values are compared, which is smaller: that of a or that of b ? Write down the label of the entry you select.
a
